TARGET_OR_SYSTEM: Glucocorticoid receptor (Mus musculus, UniProt P06537)
Sequence (P06537 whole entry): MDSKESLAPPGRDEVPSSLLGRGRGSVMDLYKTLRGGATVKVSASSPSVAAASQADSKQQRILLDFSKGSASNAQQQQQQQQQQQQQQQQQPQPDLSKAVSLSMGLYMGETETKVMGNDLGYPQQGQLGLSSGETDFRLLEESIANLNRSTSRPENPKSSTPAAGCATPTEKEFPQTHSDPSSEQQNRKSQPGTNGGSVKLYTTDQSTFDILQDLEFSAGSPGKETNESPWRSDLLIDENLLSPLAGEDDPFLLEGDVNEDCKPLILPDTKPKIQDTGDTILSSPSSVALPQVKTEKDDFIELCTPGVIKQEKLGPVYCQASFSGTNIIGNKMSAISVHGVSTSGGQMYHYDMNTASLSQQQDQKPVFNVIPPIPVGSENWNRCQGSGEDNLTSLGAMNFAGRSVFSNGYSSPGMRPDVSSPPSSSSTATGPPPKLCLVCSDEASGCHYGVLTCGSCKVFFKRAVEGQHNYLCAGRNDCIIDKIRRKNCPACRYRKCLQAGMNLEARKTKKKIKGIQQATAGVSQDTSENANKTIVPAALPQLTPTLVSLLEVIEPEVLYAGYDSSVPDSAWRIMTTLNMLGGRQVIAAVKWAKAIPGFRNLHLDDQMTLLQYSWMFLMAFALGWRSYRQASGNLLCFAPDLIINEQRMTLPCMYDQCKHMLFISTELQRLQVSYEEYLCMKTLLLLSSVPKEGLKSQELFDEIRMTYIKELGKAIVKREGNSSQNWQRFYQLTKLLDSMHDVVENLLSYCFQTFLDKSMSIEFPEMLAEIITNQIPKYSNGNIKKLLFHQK
EXPERIMENT_DESCRIPTION: GR-mediated transrepression of IL-6 in peritoneal exudate cells harvested from C57BI/6 mice
Assay type: cell-based
pEC50: −log10 of the molar value.
MEASURE: pEC50

1. C[C@]12Cc3cnn(-c4ccc(F)cc4)c3C=C1CCC[C@@H]2[C@@H](O)c1ccoc1 = 7.35
2. C[C@]12Cc3cnn(-c4ccc(F)cc4)c3C=C1CCC[C@@H]2[C@](C)(O)c1ccsc1 = 8.28
3. COc1cc([C@H](O)[C@H]2CCCC3=Cc4c(cnn4-c4ccc(F)cc4)C[C@@]32C)cc(F)c1F = 7.82
4. C[C@]12C=CC(=O)C=C1CC[C@@H]1[C@@H]2[C@@H](O)C[C@@]2(C)[C@H]1CC[C@]2(O)C(=O)CO = 8.24
5. C[C@]12Cc3cnn(-c4ccc(F)cc4)c3C=C1CCC[C@@H]2[C@@H](O)c1csc2ccccc12 = 7.27
6. C[C@]12Cc3cnn(-c4ccc(F)cc4)c3C=C1CCC[C@@H]2[C@@H](O)c1ccc(Cl)s1 = 7.77
7. C[C@]12Cc3cnn(-c4ccc(F)cc4)c3C=C1CCC[C@@H]2[C@@H](O)Cc1ccc(F)cc1 = 8.43
8. C[C@]12Cc3cnn(-c4ccc(F)cc4)c3C=C1CCC[C@@H]2[C@@H](O)c1cccs1 = 7.68
